Reference for the values: patent US20070196376A1

Biological target: human insulin-like growth factor-II (IGF-II) (human, UniProt P01344 25-91)
Assay: cell-based or functional assay
REPORTED_ENDPOINT: EC50 (nM), n = 2, IGF-II Proliferation, BxPC3 cells
Quick note: give the figure in nM, leave out the unit.

Input: If you can, please state the reported EC50 (nM), n = 2, IGF-II Proliferation, BxPC3 cells value of mAb 7.159.2 (antibody, V domains shown, Fully human XenoMouse hybridoma mAb, lambda light chain (V1-19/JL2); Sister clones 7.159.1 and 7.159.2 are said to be identical; also called 7.159.1; 7_159_1) VH: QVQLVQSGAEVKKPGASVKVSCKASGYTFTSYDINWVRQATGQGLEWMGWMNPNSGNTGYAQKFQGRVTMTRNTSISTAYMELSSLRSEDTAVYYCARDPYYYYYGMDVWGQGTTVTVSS VL: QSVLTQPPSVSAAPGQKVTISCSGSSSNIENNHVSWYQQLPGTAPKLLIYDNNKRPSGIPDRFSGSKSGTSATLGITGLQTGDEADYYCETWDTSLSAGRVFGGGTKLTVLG .
Output: 0.9
